SYSTEM TESTED: UniProt Q04756
Sequence (Q04756 373-407 limits assumed): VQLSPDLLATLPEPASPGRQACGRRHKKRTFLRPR
Sequence (Q04756 408-655 limits assumed): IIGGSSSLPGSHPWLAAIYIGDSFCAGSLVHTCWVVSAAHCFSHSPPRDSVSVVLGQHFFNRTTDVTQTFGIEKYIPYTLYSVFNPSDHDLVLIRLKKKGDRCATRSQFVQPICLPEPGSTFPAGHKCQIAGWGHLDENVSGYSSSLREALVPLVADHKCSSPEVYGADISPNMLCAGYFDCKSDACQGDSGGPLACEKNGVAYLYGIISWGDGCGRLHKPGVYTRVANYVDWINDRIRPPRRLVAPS
EXPERIMENT DESCRIPTION: Inhibition of human recombinant hepatocyte growth factor activator using H2N(EEdansyl)GKQLRVVNGG (KDabcyl)-NH2 as substrate by fluorometric analysis
Format: single protein
OBSERVED PROPERTY: pKi
Bear in mind: pKi is minus log10 of a mol/L concentration; give just that figure.

COMPOUND	pKi
CC1CN(c2ccc(C(=N)N)cc2)C(=O)N(C2CCN(Cc3ccccc3)CC2)C1 (stereo unspecified)	4.33
N=C(N)c1cccc(N2CC(NC(=O)Cc3ccccc3)CN(CC3CCN(Cc4ccccc4)CC3)C2=O)c1 (stereo unspecified)	6.42
N=C(N)c1cccc(N2CC(OCc3ccccc3)CN(CC3CCN(Cc4ccccc4)CC3)C2=O)c1 (stereo unspecified)	5.72
CC1CN(CCC2CCN(Cc3ccccc3)CC2)C(=O)N(c2cccc(C(=N)N)c2)C1 (stereo unspecified)	5.95
N=C(N)c1cccc(N2CC(CNC(=O)Cc3ccccc3)CN(CC3CCN(Cc4ccccc4)CC3)C2=O)c1 (stereo unspecified)	5.97

Challenge: Fill in the blank: the reported pKi of COCC1CN(CC2CCN(Cc3ccccc3)CC2)C(=O)N(c2cccc(C(=N)N)c2)C1 (stereo unspecified) is ____.
Response given: 6.80

Attribution: ChEMBL document CHEMBL3779883
